# System: Pseudomonas aeruginosa ATCC 9027
# measurement_protocol: bactericidal activity by serial dilution in Brain Heart Infusion Broth (MIC and MMC), P.a.
# Type: cell-based
# measurement_setup: ATCC9027, sub-culture on Tryptone Soy Agar, 37° C., 24 hours, read-out: Minimal Microbiocidal Concentration (MMC)
quantity: MBC

molecule | measured_value
O=C(O)c1cn(CC2CCCCC2)c2c(F)cc(F)cc2c1=O [Example 6] | 8 µg/mL
CCn1cc(C(=O)O)c(=O)c2cc(F)cc(F)c21 [Example 1] | 64 µg/mL
O=C(O)c1cn(CC2CC2)c2c(F)cc(F)cc2c1=O [Example 4] | 16 µg/mL
O=C(O)c1cn(CCF)c2c(F)cc(F)cc2c1=O [Example 2] | 8 µg/mL
O=C(N/N=C/c1ccc([N+](=O)[O-])o1)c1ccc(O)cc1 [Nif., Nifuroxazide, reference compound] | 500 µg/mL
O=C(O)c1cn(Cc2ccc([N+](=O)[O-])o2)c2c(F)cc(F)cc2c1=O [Example 5] | 2 µg/mL
O=C(O)c1cn(COCCO)c2c(F)cc(F)cc2c1=O [Example 3] | 16 µg/mL
O=C(O)c1cn(Cc2c(Cl)cccc2Cl)c2c(F)cc(F)cc2c1=O [Example 7] | 8 µg/mL
CCn1cc(C(=O)O)c(=O)c2cnc(N3CCNCC3)nc21 [Pip., Pipemidic acid, reference compound] | 16 µg/mL

----------
Here, each record is paired with measured MBC data.
# Test system: Salmonella enteritidis NCTC 6676
# measurement_protocol: bactericidal activity by serial dilution in Brain Heart Infusion Broth (MIC and MMC), S.e.
# Assay type: cell-based
# measurement_setup: Salmonella enterica, sub-culture on Tryptone Soy Agar, 37° C., 24 hours, read-out: Minimal Microbiocidal Concentration (MMC)

compound | MBC
O=C(O)c1cn(COCCO)c2c(F)cc(F)cc2c1=O [Example 3] | 32 µg/mL
O=C(N/N=C/c1ccc([N+](=O)[O-])o1)c1ccc(O)cc1 [Nif., Nifuroxazide, reference compound] | 500 µg/mL
CCn1cc(C(=O)O)c(=O)c2cc(F)cc(F)c21 [Example 1] | 4 µg/mL
O=C(O)c1cn(CC2CCCCC2)c2c(F)cc(F)cc2c1=O [Example 6] | 4 µg/mL
O=C(O)c1cn(CC2CC2)c2c(F)cc(F)cc2c1=O [Example 4] | 4 µg/mL

----------
Listed below: MBC values for each entry.
# Tested on: Salmonella enteritidis NCTC 6676
# measurement_protocol: bactericidal activity by serial dilution in Brain Heart Infusion Broth (MIC and MMC), S.e.
# Assay type: cell-based
# measurement_setup: Salmonella enterica, sub-culture on Tryptone Soy Agar, 37° C., 24 hours, read-out: Minimal Microbiocidal Concentration (MMC)

compound | MBC
O=C(O)c1cn(Cc2c(Cl)cccc2Cl)c2c(F)cc(F)cc2c1=O | 4 µg/mL
O=C(O)c1cn(Cc2ccc([N+](=O)[O-])o2)c2c(F)cc(F)cc2c1=O | 125 µg/mL
CCn1cc(C(=O)O)c(=O)c2cnc(N3CCNCC3)nc21 [Pip., Pipemidic acid, reference compound] | 8 µg/mL
O=C(O)c1cn(CCF)c2c(F)cc(F)cc2c1=O | 8 µg/mL

Numbers sourced from patent US4914110A.
